Values were extracted from patent US10940139B2.

- experimental.system: KRas G12D mutant protein (Homo sapiens (Human), UniProt P01116, G12D)
- Sequence (P01116-2 other isoform, or with tags, fused parts or gaps G12D): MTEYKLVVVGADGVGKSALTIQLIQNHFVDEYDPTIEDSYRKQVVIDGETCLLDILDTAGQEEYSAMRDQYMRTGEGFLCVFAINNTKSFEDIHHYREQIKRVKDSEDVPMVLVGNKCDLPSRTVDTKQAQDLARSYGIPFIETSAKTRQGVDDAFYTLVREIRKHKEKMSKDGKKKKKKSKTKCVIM
- method.summary: Ras GTP binding domain inhibition assay (labeled GTP)
- experimental.context: 20 μM compound; KRas G12D; read-out: % Inhibition at 20 μM of K-Ras mutant and wild-type protein, KRas G12D
- Description: The following method was developed as specific assay for KRas G12D mutant protein. Buffer-I: • 50 mM Tris, pH 7.5 • 150 mM NaCl (optional) • 1 mM MgCl2 • 1 mM DTT. • KRas G12D mutant protein was expressed as a His-tagged protein. […]
Would you kindly list inhibition at 20 µM for each of these compounds?

Known inhibition at 20 µM results, listed for orientation:
COc1ccc(-c2csc3c(O)nc(-c4nccn4C)nc23)cn1 [drawing 3613] : 51 to 75%
Cc1sc2c(O)nc(-c3nccn3C)nc2c1-c1ccc(OCC(C)C)nc1 [drawing 3600] : 1 to 25%
CCOCCOc1nc(-c2nccn2C)nc2sc(-c3ccccc3)c(-c3ccccc3)c12 [drawing 3572] : 1 to 25%

Kindly give each listed record's inhibition at 20 µM.
1. CC(C)Oc1ccc(-c2csc3c(O)nc(-c4nccn4C)nc23)cc1F [drawing 3609]
2. Cc1sc2c(O)nc(-c3nccn3C)nc2c1-c1ccccc1 [drawing 3594]
3. Oc1nc(-c2ccccn2)nc2c1c(-c1ccccc1)nn2-c1ccccn1 [drawing 3539]
4. COCC(C)Nc1nc(-c2nccn2C)nc2sc(-c3ccccc3)c(-c3ccccc3)c12 (stereo not drawn) [drawing 3577]
5. COc1c(O)nc(-c2ccccn2)nc1Oc1cccc(C(F)(F)F)c1 [drawing 3557]
6. Oc1nc(-c2ccccn2)nc2cc(-c3ccncc3)sc12 [drawing 3561]

Out:
25 to 50%
25 to 50%
51 to 75%
1 to 25%
76 to 100%
51 to 75%
